Values were extracted from patent US20240336909A1.

Give Cynomolgus EpCAM/Control for every item shown.
target: T1, cynomolgus EpCAM protein (cynomolgus monkey); test: colorimetric ELISA
T1 construct: biotinylated in the Octet assays; also called cy EpCAM; cynomolgus monkey EpCAM
T1 sequence (Q1WER1 24-265): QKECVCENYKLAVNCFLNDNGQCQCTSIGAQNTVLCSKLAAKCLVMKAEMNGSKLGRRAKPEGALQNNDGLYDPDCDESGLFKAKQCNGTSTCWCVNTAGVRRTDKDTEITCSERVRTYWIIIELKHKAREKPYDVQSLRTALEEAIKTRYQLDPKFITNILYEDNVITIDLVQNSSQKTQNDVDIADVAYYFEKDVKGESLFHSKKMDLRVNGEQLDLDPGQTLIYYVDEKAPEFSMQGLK
Kindly provide the numeric value in ratio only, without the unit symbol.

Name the recorded Cynomolgus EpCAM/Control of the binder listed here: Llama anti-EpCAM single domain antibody EPL126 (VHH, E. coli periplasmic extract) VHH: QVQLQESGGGLVQAGGSLRLSCAASGFIFRAASMGWYRQSPGNERELVATINSGGFTNYADSVKGRFTISRDNAKNTGYLQMNSLKPEDTAVYFCAATFLRSDGQPPIWGQGTQVTVSS
4

Indicate the recorded Cynomolgus EpCAM/Control value for this binder: Llama anti-EpCAM single domain antibody EPL127 (VHH, E. coli periplasmic extract) VHH: QVQLQESGGGLVQAGGSLRLSCAAPGFAFNDHAILWFRQAPGKEREGVSEICRDGTTYYTDSVKGRFTISSDNAKNTVYLQMNSVKTDDTAVYYCAVDRRRYYCSGNRAFSSDYYYWGQGTQVTVSS
11

Complete the entry with Cynomolgus EpCAM/Control for Llama anti-EpCAM single domain antibody EPL31 (VHH, E. coli periplasmic extract) VHH: QVQLQESGGGLVHTGGSLRLSCAASGDTFLRYAMGWFRQAPGKEREFVAAITWNGGNTDYAGSLKGRFTISRDNTKNTVYLQMNSLKPEDTAVYYCAADLTFGLASSHYQYDYWGQGTQVTVSS
6

Using known records, supply Cynomolgus EpCAM/Control for Llama anti-EpCAM single domain antibody EPL189 (VHH, E. coli periplasmic extract) VHH: QVQLQESGGGLVQPGGSLRLSCAASGRINSINTMGWYRQAPGNQRELVAEITRGGTTNYADSVQGRYAISRDNAKNLVYLQMNSLKPEDTDVYYCNAQTFPTFSRPTGLDYWGQGTQVTVSS
8
